- Test system: cultured human mast cells (CHMC)
- TEST PROTOCOL: CHMC high cell density IgE activation: histamine
- Assay type: cell-based
- CONDITION INFO: anti-IgE activation
- Experimental: Inhibition of degranulation was measured at both low and high cell density by quantifying the release of the granule specific factors tryptase, histamine and hexosaminidase. Inhibition of release and/or synthesis of lipid mediators was assessed by measuring the release of leukotriene LTC4 and inhibition of release and/or synthesis of cytokines was monitored by quantifying TNF-α, IL-6 and IL-13. […]
pIC50: −log10 of the molar value.
Entry flag: true (1) if pIC50 reaches 6; false (0) if it does not.

{"columns": ["CHEMICAL SMILES", "SYSTEM TESTED", "ASSIGNED CATEGORY"],
 "data": [
  ["Cc1cc(Nc2nc(Nc3cccc(OCC(=O)N4CCNCC4)c3)ncc2F)cc(C)c1O", "cultured human mast cells (CHMC)", "false (0)"],
  ["CNCCOc1cccc(Nc2ncc(F)c(Nc3ccc4c(c3)OCCO4)n2)c1", "cultured human mast cells (CHMC)", "false (0)"],
  ["CNC(=O)COc1cccc(Nc2ncc(F)c(Nc3ccc4c(c3)OCCO4)n2)c1", "cultured human mast cells (CHMC)", "true (1)"],
  ["CNC(=O)COc1cccc(Nc2ncc(F)c(Nc3ccc4c(c3)NCCO4)n2)c1", "cultured human mast cells (CHMC)", "true (1)"],
  ["Fc1cnc(Nc2ccc(OCc3nnn[nH]3)cc2)nc1Nc1ccc(OCc2nnn[nH]2)cc1", "cultured human mast cells (CHMC)", "false (0)"],
  ["CC(C)Oc1ccc(Nc2nc(Nc3ccc4oc(C(=O)N5CCCC5)cc4c3)ncc2F)cc1", "cultured human mast cells (CHMC)", "false (0)"]
]}

----------
- Tested on: cultured human mast cells (CHMC)
- TEST PROTOCOL: CHMC low cell density IgE activation: LTC4 assay
- Assay type: cell-based
- CONDITION INFO: Homo sapiens, Mast cell, anti-IgE
pIC50: −log10 of the molar value.

{"columns": ["CHEMICAL SMILES", "pIC50"],
 "data": [
  ["COC(=O)c1cc2cc(Nc3ncc(F)c(Nc4ccc5[nH]c(C(=O)OC)cc5c4)n3)ccc2[nH]1", 6.31]
]}

----------
Catalogue of IC50 values
- System: cultured human mast cells (CHMC)
- TEST PROTOCOL: CHMC low cell density IgE activation: tryptase assay
- Type: cell-based
- CONDITION INFO: Homo sapiens, Mast cell, anti-IgE

{"columns": ["MOLECULE", "IC50"],
 "data": [
  ["CCOC(=O)CNc1cccc(Nc2ncc(F)c(Nc3cccc(O)c3)n2)c1 [R950216]", "0.327 µM"],
  ["CNc1ncc(F)c(Nc2ccc3c(c2)OCCO3)n1 [R950189]", "10 µM"],
  ["COc1ccc(Nc2ncc([N+](=O)[O-])c(Nc3ccc(OC)c(OC)c3)n2)cc1OC [R940089]", "> 10 µM"],
  ["Oc1cccc(Nc2nc(Nc3ccc(OCc4nnn[nH]4)cc3)ncc2C(F)(F)F)c1 [R920846]", "> 10 µM"],
  ["CCOc1ccc(Nc2ncc([N+](=O)[O-])c(Nc3ccc(OCC)cc3)n2)cc1 [R940090]", "> 10 µM"],
  ["O=C(O)Cc1cccc(Nc2ncc(F)c(Nc3cccc(CC(=O)O)c3)n2)c1 [R935117]", "> 10 µM"],
  ["COC(=O)c1cc2cc(Nc3ncc(F)c(Nc4ccc5[nH]c(C(=O)OC)cc5c4)n3)ccc2[nH]1 [R926593]", "0.68 µM"]
]}
